tested on: MOG-G-CCM (Low Grade Glioma); test: Bliss excess, mean over the matrix (fraction); higher = more synergy;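 also: after 72 h of two-drug dosing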
What Bliss excess was measured for each of the following?
Number only, no unit.

Specify reported Bliss excess for the molecule shown: CC(=O)Nc1cccc(-n2c(=O)n(C3CC3)c(=O)c3c(Nc4ccc(I)cc4F)n(C)c(=O)c(C)c32)c1 [Trametinib] + Cc1nc(-c2cn3c(n2)-c2ccc(-c4cnn(C(C)(C)C(N)=O)c4)cc2OCC3)n(C(C)C)n1 [Taselisib] (first compound max 1 µM, 7x7, partner max 10 µM)
0.0182

Please indicate Bliss excess recorded for CN(CCO)CC[C@H](CSc1ccccc1)Nc1ccc(S(=O)(=O)NC(=O)c2ccc(N3CCC([C@@H](O)c4ccccc4-c4ccc(Cl)cc4)CC3)cc2)cc1S(=O)(=O)C(F)(F)F [AZD4320] + CC(=O)O[C@H]1C(=O)[C@@]2(C)[C@H]([C@H](OC(=O)c3ccccc3)[C@]3(O)C[C@H](OC(=O)[C@H](O)[C@@H](NC(=O)c4ccccc4)c4ccccc4)C(C)=C1C3(C)C)[C@]1(OC(C)=O)CO[C@@H]1C[C@@H]2O [Paclitaxel] (first compound max 1 µM, 7x7, partner max 3 µM)
0.0506

Indicate the recorded Bliss excess value for this molecule: CCN(CCO)CCCOc1ccc2c(Nc3cc(CC(=O)Nc4cccc(F)c4)[nH]n3)ncnc2c1 [AZD2811] + C[C@@H]1COCCN1C2=NC(=NC(=C2)C3(CC3)[S@](=N)(=O)C)C4=C5C=CNC5=NC=C4 [AZD6738] (first compound max 1 µM, 7x7, partner max 10 µM)
-0.0116

Assign Bliss excess to the following record: COc1cccc(OCCCN)c1-c1cc(Nc2cnc(C#N)cn2)n[nH]1 [Prexasertib] + C=CCn1c(=O)c2cnc(Nc3ccc(N4CCN(C)CC4)cc3)nc2n1-c1cccc(C(C)(C)O)n1 [AZD1775] (first compound max 1 µM, partner max 1 µM)
0.0748

Report measured Bliss excess; entry is N#Cc1cnc(Nc2cc(NC[C@H]3CNCCO3)c(C(F)(F)F)cn2)cn1 [SRA737] + CCc1c2c(nc3ccc(O)cc13)-c1cc3c(c(=O)n1C2)COC(=O)[C@]3(O)CC [SN-38] (first compound max 10 µM, 7x7, partner max 0.3 µM)
-0.0105

====

system: NCI-H520 (Squamous Cell Lung Carcinoma); experiment: combination Emax (second highest fraction inhibited in the dose matrix, 72 h); higher = more inhibition; extreme values may be limits of the assay
Exercise: state measured combination Emax for each of the compounds provided.

Determine its reported combination Emax: CN(CCO)CC[C@H](CSc1ccccc1)Nc1ccc(S(=O)(=O)NC(=O)c2ccc(N3CCC([C@@H](O)c4ccccc4-c4ccc(Cl)cc4)CC3)cc2)cc1S(=O)(=O)C(F)(F)F [AZD4320] + CN(C)CCCOc1ccc(-c2ccc3ncc4c(c3c2)n(C2CCOCC2)c(=O)n4C)cn1 [AZD0156] (first compound max 1 µM, 7x7, partner max 1 µM)
0.474

Tell me its combination Emax given Cc1c2c(nn1C)CSCc1cc(n(C)n1)CSc1cc(c3ccccc3c1)OCCCc1c(C(=O)O)n(C)c3c-2c(Cl)ccc13 [AZD5991] + C=CCn1c(=O)c2cnc(Nc3ccc(N4CCN(C)CC4)cc3)nc2n1-c1cccc(C(C)(C)O)n1 [AZD1775] (first compound max 1 µM, partner max 1 µM) as the entry.
0.76

For the compound Cc1cc2ncnn2cc1Nc1ncc2c(n1)n(C1CCOCC1)c(=O)n2C [AZD7648] + C[C@@H]1COCCN1C2=NC(=NC(=C2)C3(CC3)[S@](=N)(=O)C)C4=C5C=CNC5=NC=C4 [AZD6738] (first compound max 10 µM, 7x7, partner max 10 µM) , give its reported combination Emax.
0.771

Note down combination Emax recorded for Cn1cnc2c(F)c(Nc3ccc(Br)cc3Cl)c(C(=O)NOCCO)cc21 [Selumetinib] + CC(C)n1c(=O)n(C)c2cnc3cc(F)c(-c4ccc(OCCCN5CCCCC5)nc4)cc3c21 [AZD1390] (first compound max 10 µM, 7x7, partner max 0.3 µM)
0.147

====

Would you mind telling me the reported combination Emax of each entry?
system: COR-L279 (Small Cell Lung Carcinoma); assay: combination Emax (second highest fraction inhibited in the dose matrix, 72 h); higher = more inhibition; extreme values may be limits of the assay
API doc: respond with a numeric literal and nothing else, no unit.

Provide one value: measured combination Emax of NC1(C(=O)N[C@@H](CCO)c2ccc(Cl)cc2)CCN(c2ncnc3[nH]ccc23)CC1 [Capivasertib] + CC(C)n1c(=O)n(C)c2cnc3cc(F)c(-c4ccc(OCCCN5CCCCC5)nc4)cc3c21 [AZD1390] (first compound max 10 µM, 7x7, partner max 0.3 µM)
0.602

Hello, please tell me recorded combination Emax for this one: CN(CCO)CC[C@H](CSc1ccccc1)Nc1ccc(S(=O)(=O)NC(=O)c2ccc(N3CCC([C@@H](O)c4ccccc4-c4ccc(Cl)cc4)CC3)cc2)cc1S(=O)(=O)C(F)(F)F [AZD4320] + C[C@@H]1COCCN1C2=NC(=NC(=C2)C3(CC3)[S@](=N)(=O)C)C4=C5C=CNC5=NC=C4 [AZD6738] (first compound max 1 µM, 7x7, partner max 10 µM)
1

Quick one: give measured combination Emax for COc1cccc(OCCCN)c1-c1cc(Nc2cnc(C#N)cn2)n[nH]1 [Prexasertib] + CN(C)CCCOc1ccc(-c2ccc3ncc4c(c3c2)n(C2CCOCC2)c(=O)n4C)cn1 [AZD0156] (first compound max 1 µM, 7x7, partner max 1 µM)
0.809

====

test system: RPMI-8226 (Plasma Cell Myeloma); assay: combination Emax (second highest fraction inhibited in the dose matrix, 72 h); higher = more inhibition; extreme values may be limits of the assay
So basically: combination Emax at 0.9 or higher? That is MET. Lower than 0.9? That is NOT MET.

Threshold query (combination Emax >= 0.9) on CC1(C)CCC(CN2CCN(c3ccc(C(=O)NS(=O)(=O)c4ccc(NCC5CCOCC5)c([N+](=O)[O-])c4)c(Oc4cnc5[nH]ccc5c4)c3)CC2)=C(c2ccc(Cl)cc2)C1 [Venetoclax] + C[C@@H](Nc1cc(F)cc(F)c1)c1cc(C(=O)N(C)C)cc2c(=O)cc(N3CCOCC3)oc12 [AZD8186] (first compound max 1 µM, 7x7, partner max 3 µM)
NOT MET

Please tell me: is the compound Cc1c2c(nn1C)CSCc1cc(n(C)n1)CSc1cc(c3ccccc3c1)OCCCc1c(C(=O)O)n(C)c3c-2c(Cl)ccc13 [AZD5991] + CN(C)CCCOc1ccc(-c2ccc3ncc4c(c3c2)n(C2CCOCC2)c(=O)n4C)cn1 [AZD0156] (first compound max 1 µM, 7x7, partner max 1 µM) at or over 0.9 in terms of combination Emax?
MET

Given Cc1c2c(nn1C)CSCc1cc(n(C)n1)CSc1cc(c3ccccc3c1)OCCCc1c(C(=O)O)n(C)c3c-2c(Cl)ccc13 [AZD5991] + Cn1cnc2c(F)c(Nc3ccc(Br)cc3Cl)c(C(=O)NOCCO)cc21 [Selumetinib] (first compound max 1 µM, 7x7, partner max 3 µM) , state whether its combination Emax is at least 0.9.
MET

Is the recorded value of combination Emax equal to or greater than 0.9 for this compound? Cc1c2c(nn1C)CSCc1cc(n(C)n1)CSc1cc(c3ccccc3c1)OCCCc1c(C(=O)O)n(C)c3c-2c(Cl)ccc13 [AZD5991] + CCN(CCO)CCCOc1ccc2c(Nc3cc(CC(=O)Nc4cccc(F)c4)[nH]n3)ncnc2c1 [AZD2811] (first compound max 1 µM, 7x7, partner max 1 µM)
MET

Decide: is the reported value of combination Emax for CC(=O)c1c(C)c2cnc(Nc3ccc(N4CCNCC4)cn3)nc2n(C2CCCC2)c1=O [Palbociclib] + Cc1c2c(nn1C)CSCc1cc(n(C)n1)CSc1cc(c3ccccc3c1)OCCCc1c(C(=O)O)n(C)c3c-2c(Cl)ccc13 [AZD5991] (first compound max 10 µM, 7x7, partner max 1 µM) equal to or greater than 0.9?
MET

Is combination Emax for CC1(C)CCC(CN2CCN(c3ccc(C(=O)NS(=O)(=O)c4ccc(NCC5CCOCC5)c([N+](=O)[O-])c4)c(Oc4cnc5[nH]ccc5c4)c3)CC2)=C(c2ccc(Cl)cc2)C1 [Venetoclax] + C1CN(CCC1(C(=O)N[C@@H](CCO)C2=CC=C(C=C2)Cl)N)C3=NC=NC4=C3C=CN4 [Capivasertib] (first compound max 1 µM, 7x7, partner max 3 µM) at or above 0.9?
NOT MET

Identify whether the reported combination Emax of the following compound is 0.9 or greater: COc1cccc2c1C(=O)c1c(O)c3c(c(O)c1C2=O)C[C@@](O)(C(=O)CO)C[C@@H]3O[C@H]1C[C@H](N)[C@H](O)[C@H](C)O1 [Doxorubicin] + Cc1cc2ncnn2cc1Nc1ncc2c(n1)n(C1CCOCC1)c(=O)n2C [AZD7648] (first compound max 1 µM, 7x7, partner max 10 µM)
MET
